- Tested on: human red blood cells
- PROTOCOL DETAILS: Determination of haemolytic activity
- Format: cell-based
- CONDITION INFO: human red blood cells (5% v/v), 1 h at 37 °C; concentration for lysis of 50% of erythrocytes

SMILES STR	Hemolytic activity LC50
CC[C@H](C)[C@H](NC(=O)[C@H](CCCCN)NC(=O)[C@H](CCCCN)NC(=O)[C@@H](CC(C)C)NC(=O)[C@H](CC(C)C)NC(=O)[C@H](CCCCN)NC(=O)[C@H](CCSC)NC(=O)[C@H](Cc1c[nH]c2ccccc12)NC(=O)[C@H](CCCCN)NC(=O)CN)C(=O)N[C@@H](CC(C)C)C(=O)N[C@@H](CCCCN)C(N)=O	>400 µM

* * *

# Hemolytic activity LC50 per record follows
- Tested on: human red blood cells
- PROTOCOL DETAILS: Determination of haemolytic activity
- Assay type: cell-based
- CONDITION INFO: human red blood cells (5% v/v), 1 h at 37 °C; concentration for lysis of 50% of erythrocytes
Square brackets hold non-standard residues; d marks the D form. Peptide text beside a SMILES is read from it. Met(O) = CS(=O)CC[C@H](N)C(=O)O; βAla = NCCC(=O)O

COMPOUND	STUDY SYSTEM	Hemolytic activity LC50
CC[C@@H](C)[C@@H](NC(=O)[C@@H](CCCCN)NC(=O)[C@@H](CCCCN)NC(=O)[C@@H](CC(C)C)NC(=O)[C@@H](CC(C)C)NC(=O)[C@@H](CCCCN)NC(=O)[C@@H](CCSC)NC(=O)[C@@H](Cc1c[nH]c2ccccc12)NC(=O)[C@@H](CCCCN)NC(=O)CCN)C(=O)N[C@H](CC(C)C)C(=O)N[C@H](CCCCN)C(N)=O [Peptide VI] (H-[βAla][dK][dW][dM][dK][dL][dL][dK][dK][dI][dL][dK]-NH2)	human red blood cells	>400 µmol/L
CC[C@H](C)[C@H](NC(=O)[C@H](CCCCN)NC(=O)[C@H](CCCCN)NC(=O)[C@H](CC(C)C)NC(=O)[C@H](CCSC)NC(=O)[C@H](CCCCN)NC(=O)[C@H](CCSC)NC(=O)[C@H](Cc1c[nH]c2ccccc12)NC(=O)[C@H](CCCCN)NC(=O)CN)C(=O)N[C@@H](CC(C)C)C(=O)N[C@@H](CCCCN)C(N)=O [XI] (H-GKWMKMLKKILK-NH2)	human red blood cells	>>200 µmol.l^-1
CC[C@H](C)[C@H](NC(=O)[C@H](CCCCN)NC(=O)[C@H](CCCCN)NC(=O)[C@H](CC(C)C)NC(=O)[C@H](CC(C)C)NC(=O)[C@H](CCCCN)NC(=O)[C@H](CCSC)NC(=O)[C@H](Cc1c[nH]c2ccccc12)NC(=O)[C@H](CCCCN)NC(=O)CN)C(=O)N[C@@H](CC(C)C)C(=O)N[C@@H](CCCCN)C(N)=O	human red blood cells	339 µmol/L
CC[C@@H](C)[C@@H](NC(=O)[C@@H](CCCCN)NC(=O)[C@@H](CCCCN)NC(=O)[C@@H](CC(C)C)NC(=O)[C@@H](CC(C)C)NC(=O)[C@@H](CCCCN)NC(=O)[C@@H](CCSC)NC(=O)[C@@H](Cc1c[nH]c2ccccc12)NC(=O)[C@H](N)CCCCN)C(=O)N[C@H](CC(C)C)C(=O)N[C@H](CCCCN)C(N)=O [II] (H-[dK][dW][dM][dK][dL][dL][dK][dK][dI][dL][dK]-NH2)	human red blood cells	>400 µmol/L
CC[C@H](C)[C@H](NC(=O)[C@H](CCCCN)NC(=O)[C@H](CCCCN)NC(=O)[C@H](CC(C)C)NC(=O)[C@H](CC(C)C)NC(=O)[C@H](CCCCN)NC(=O)[C@H](CC[S+](C)[O-])NC(=O)[C@H](Cc1c[nH]c2ccccc12)NC(=O)[C@H](CCCCN)NC(=O)CN)C(=O)N[C@@H](CC(C)C)C(=O)N[C@@H](CCCCN)C(N)=O (stereo partly drawn) [XII] (H-GKW[Met(O)]KLLKKILK-NH2)	human red blood cells	>400 µmol/L
CC[C@H](C)[C@H](NC(=O)[C@H](CCCCN)NC(=O)[C@H](CCCCN)NC(=O)[C@H](CC(C)C)NC(=O)[C@H](CC(C)C)NC(=O)[C@H](CCCCN)NC(=O)[C@H](CCSC)NC(=O)[C@H](Cc1c[nH]c2ccccc12)NC(=O)[C@H](CCCCN)NC(=O)CCN)C(=O)N[C@@H](CC(C)C)C(=O)N[C@@H](CCCCN)C(N)=O [Peptide V] (H-[βAla]KWMKLLKKILK-NH2)	human red blood cells	270 µmol/L
CC[C@H](C)[C@H](NC(=O)[C@H](CCCCN)NC(=O)[C@H](CCCCN)NC(=O)[C@H](CC(C)C)NC(=O)[C@H](CC(C)C)NC(=O)[C@H](CCCCN)NC(=O)[C@H](CCSC)NC(=O)[C@H](Cc1c[nH]c2ccccc12)NC(=O)[C@@H](N)CCCCN)C(=O)N[C@@H](CC(C)C)C(=O)N[C@@H](CCCCN)C(N)=O [I] (H-KWMKLLKKILK-NH2)	human red blood cells	>400 µmol/L
CC[C@H](C)[C@H](NC(=O)[C@H](CCCCN)NC(=O)[C@H](CCCCN)NC(=O)[C@H](CC(C)C)NC(=O)[C@H](CC(C)C)NC(=O)[C@H](CCCCN)NC(=O)[C@H](CC(C)C)NC(=O)[C@H](Cc1c[nH]c2ccccc12)NC(=O)[C@H](CCCCN)NC(=O)CN)C(=O)N[C@@H](CC(C)C)C(=O)N[C@@H](CCCCN)C(N)=O [Peptide VII] (H-GKWLKLLKKILK-NH2)	human red blood cells	196 µmol/L
CC[C@H](C)[C@H](NC(=O)[C@H](CCCCN)NC(=O)[C@H](CCCCN)NC(=O)[C@H](CC(C)C)NC(=O)[C@H](CC(C)C)NC(=O)[C@H](CCCCN)NC(=O)[C@@H](NC(=O)[C@H](Cc1c[nH]c2ccccc12)NC(=O)[C@H](CCCCN)NC(=O)CN)C(C)C)C(=O)N[C@@H](CC(C)C)C(=O)N[C@@H](CCCCN)C(N)=O [Peptide VIII] (H-GKWVKLLKKILK-NH2)	human red blood cells	>400 µmol/L
CC[C@@H](C)[C@@H](NC(=O)[C@@H](CCCCN)NC(=O)[C@@H](CCCCN)NC(=O)[C@@H](CC(C)C)NC(=O)[C@@H](CC(C)C)NC(=O)[C@@H](CCCCN)NC(=O)[C@@H](CCSC)NC(=O)[C@@H](Cc1c[nH]c2ccccc12)NC(=O)[C@@H](CCCCN)NC(=O)CN)C(=O)N[C@H](CC(C)C)C(=O)N[C@H](CCCCN)C(N)=O	human red blood cells	>400 µmol/L
CC[C@@H](C)[C@@H](NC(=O)[C@@H](CCCCN)NC(=O)[C@@H](CCCCN)NC(=O)[C@@H](CC(C)C)NC(=O)[C@@H](CC(C)C)NC(=O)[C@@H](CCCCN)NC(=O)[C@H](NC(=O)[C@@H](Cc1c[nH]c2ccccc12)NC(=O)[C@@H](CCCCN)NC(=O)CN)C(C)C)C(=O)N[C@H](CC(C)C)C(=O)N[C@H](CCCCN)C(N)=O [IX] (H-G[dK][dW][dV][dK][dL][dL][dK][dK][dI][dL][dK]-NH2)	human red blood cells	>400 µmol/L
CC[C@H](C)[C@H](NC(=O)[C@H](CCCCN)NC(=O)[C@H](CCCCN)NC(=O)[C@H](CC(C)C)NC(=O)[C@H](CC(C)C)NC(=O)[C@H](CCCCN)NC(=O)[C@H](CCCCN)NC(=O)[C@H](Cc1c[nH]c2ccccc12)NC(=O)[C@H](CCCCN)NC(=O)CN)C(=O)N[C@@H](CC(C)C)C(=O)N[C@@H](CCCCN)C(N)=O [X] (H-GKWKKLLKKILK-NH2)	human red blood cells	>400 µmol/L

* * *

This section presents compounds with their documented Antimicrobial activity MIC values.
- Test system: S.e. (clin. isolate Motol)
- Type: cell-based, Staphylococcus epidermidis
- CONDITION INFO: 37° C for 20 h
Peptide text beside a SMILES is read from it.
OUTCOME MEASURE: Antimicrobial activity MIC

COMPOUND	OUTCOME MEASURE	ASSAY VALUE
CC[C@H](C)[C@H](NC(=O)[C@H](CCCCN)NC(=O)[C@H](CCCCN)NC(=O)[C@@H](CC(C)C)NC(=O)[C@H](CC(C)C)NC(=O)[C@H](CCCCN)NC(=O)[C@H](CCSC)NC(=O)[C@H](Cc1c[nH]c2ccccc12)NC(=O)[C@H](CCCCN)NC(=O)CN)C(=O)N[C@@H](CC(C)C)C(=O)N[C@@H](CCCCN)C(N)=O	Antimicrobial activity MIC	4,0 µmol.l^-1
CC[C@H](C)[C@H](NC(=O)[C@H](CCCCN)NC(=O)[C@H](CCCCN)NC(=O)[C@H](CC(C)C)NC(=O)[C@H](CC(C)C)NC(=O)[C@H](CCCCN)NC(=O)[C@H](CCSC)NC(=O)[C@H](Cc1c[nH]c2ccccc12)NC(=O)[C@H](CCCCN)NC(=O)CN)C(=O)N[C@@H](CC(C)C)C(=O)N[C@@H](CCCCN)C(N)=O	Antimicrobial activity MIC	2,3 µmol.l^-1
CC[C@H](C)[C@H](NC(=O)[C@H](CCCCN)NC(=O)[C@H](CCCCN)NC(=O)[C@H](CC(C)C)NC(=O)[C@H](CCSC)NC(=O)[C@H](CCCCN)NC(=O)[C@H](CCSC)NC(=O)[C@H](Cc1c[nH]c2ccccc12)NC(=O)[C@H](CCCCN)NC(=O)CN)C(=O)N[C@@H](CC(C)C)C(=O)N[C@@H](CCCCN)C(N)=O [XI] (H-GKWMKMLKKILK-NH2)	Antimicrobial activity MIC	3,2 µmol.l^-1
CC[C@H](C)[C@H](NC(=O)[C@H](CCCCN)NC(=O)[C@H](CCCCN)NC(=O)[C@H](CC(C)C)NC(=O)[C@H](CC(C)C)NC(=O)[C@H](CCCCN)NC(=O)[C@H](CCSC)NC(=O)[C@H](Cc1c[nH]c2ccccc12)NC(=O)[C@@H](N)CCCCN)C(=O)N[C@@H](CC(C)C)C(=O)N[C@@H](CCCCN)C(N)=O [I] (H-KWMKLLKKILK-NH2)	Antimicrobial activity MIC	3,2 µmol.l^-1
CC[C@@H](C)[C@@H](NC(=O)[C@@H](CCCCN)NC(=O)[C@@H](CCCCN)NC(=O)[C@@H](CC(C)C)NC(=O)[C@@H](CC(C)C)NC(=O)[C@@H](CCCCN)NC(=O)[C@@H](CCSC)NC(=O)[C@@H](Cc1c[nH]c2ccccc12)NC(=O)[C@@H](CCCCN)NC(=O)CN)C(=O)N[C@H](CC(C)C)C(=O)N[C@H](CCCCN)C(N)=O	Antimicrobial activity MIC	2,0 µmol.l^-1

Just for reference, patent EP3570868B1 is where these values come from.
